- Tested on: CSC-2
- Procedure Text: Effect of additives and solvents on hydrolysis of ketoprofen monoglyceride by CSC-2
- Format: biochemical, Candida rugosa
- Condition Label: solvent/buffer 1:1 two phase, 16 hour reactions
Property Measured: Relative Rate
Field format: numeric only.

# lookup: Relative Rate of ClCC(Cl)Cl
0

Queued: O=C1CCCCC1
0

Try this compound too: OCc1ccccc1
0

Try this compound too: CCC(=O)CC
0

Quick one: CCOC(C)=O [Ethyl acetate]
0

Quick one: CCCCCCO
0

CCCCO ?
0

Record: CCCCCCCCO
0

What do we get for ClCCCl [Ethylene dichloride] ?
0

Note, next up: ClCCl
0
